B1: CPEB3 Ribozyme (parent)
chain: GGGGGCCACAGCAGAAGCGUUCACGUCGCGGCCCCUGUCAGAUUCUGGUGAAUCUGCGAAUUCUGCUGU

Variants of: B1
Run Description: self-cleavage, relative activity (ratio to wild type); higher = more cleavage; co-transcriptional
Reported Endpoint: self-cleavage

>>> df
    mutant_id  assay_result
 0   G3A C12A         0.324
 1  U61A U67G         0.958
 2  U64C C66G         0.555
 3   C6U A10C         0.985
 4  A23C A51G         0.899
 5    G3U C7A        0.0696
 6  U20A A52C        0.0922
 7   G3C U46A         0.113
 8  G31A U62G         0.434
 9  C32G U44G         0.426
10  G11A A15G         0.807
